# study target: pre-pro-insulin glargine
result type: Yield

Query :: I have this protein here, trypsin variant SEQ ID NO: 80 (protein) IVGGYTCAANSIPYQVSLNSGSHRCGGSLINSQWVVSAAHCYKSRIQVRLGEHNIHVLEGNEQFINAAKIITHPNFNPNTLDNDIMLIKLSSPATLNSHVATVSLPTSCAAAGTECLISGWGNTSSSGSSMPSLLQCLKAPVLSDSSCKSSYPGQITGNMICVGFLEGGKDACQGDSGGPVVCNGQLQGIVSSGYGCAQKNKPGVYTKVCNYVNWIQQTIAAN , and I need its recorded Yield.
Result :: > 90%

Query :: Given the protein porcine trypsin variant no. 105 (SEQ ID NO: 105) (protein) IVGGYTCAANSIPYQVSLNSGSHRCGGSLINSQWVVSAAHCYKSRIQVRLGEHNIHVLEGNEQFINAAKIITHPNFNPNTLDNDIMLIKLSSPATLNSNVATVSLPTSCAAAGTECLISGWGNTASSGSSYPSLLQCLKAPVLSDSSCKSSYPGQITGNMICVGFLEGGADACQGDSGGPVVCNGQLQGIVSSGYGCAQKNKPGVYTKVCNYVNWIQQTIAAN , what is its reported Yield?
Result :: > 90%

Query :: Quick one: Yield for trypsin variant SEQ ID NO: 109 (protein) IVGGYTCAANSIPYQVSLNSGSHRCGGSLINSQWVVSAAHCYKSRIQVRLGEHNIHVLEGNEQFINAAKIITHPNFNGNTLDNDIMLIKLSSPATLNSNVATVSLPTSCAAAGTECLISGWGNTCSSGSSMPSLLQCLKAPVLSDSSCKSSYPGQITGNMICVGFLEGGADACQGDSGGPVVCNGQLQGIVSSGYGCAQKNKPGVYTKVCNYVNWIQQTIAAN ?
Result :: > 80%

All values here come from patent US20230303994.
